Biological target: HRgpA-6H (Porphyromonas gingivalis) (UniProt P28784)
Experiment: ELISA, FASEBA Fab supernatant on coated HRgpA-6H

- binder: "KB001 mouse Fab variant VL I98M (Fab, V domains shown) VH: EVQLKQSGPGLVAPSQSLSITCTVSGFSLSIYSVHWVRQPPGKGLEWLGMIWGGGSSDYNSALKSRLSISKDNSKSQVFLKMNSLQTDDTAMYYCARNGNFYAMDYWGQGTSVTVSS VL: QIVLTQSPAIMSASLGERVTMTCTASSSVSSSFLHWYQQKPGSSPQLWIYSTSNLASGVPARFSGSGSGTSYSLTISSMEAEDAATYYCHQYHHSPYMYTFGGGTKLEIK"
  OD450 nm: 0.729
- binder: "KB001 mouse Fab variant VL Y92N (Fab, V domains shown) VH: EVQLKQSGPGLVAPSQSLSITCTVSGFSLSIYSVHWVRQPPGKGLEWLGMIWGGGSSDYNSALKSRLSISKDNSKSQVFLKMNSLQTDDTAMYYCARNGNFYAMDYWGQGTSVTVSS VL: QIVLTQSPAIMSASLGERVTMTCTASSSVSSSFLHWYQQKPGSSPQLWIYSTSNLASGVPARFSGSGSGTSYSLTISSMEAEDAATYYCHQNHHSPYIYTFGGGTKLEIK"
  OD450 nm: 0.773
